# credit: PubChem BioAssay

Assay: yeast growth modulation, basal conditions, primary screen, YJM789 clinical isolate, OD600, 24 h (AID 1089);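 note: growth of clinical yeast isolate S. cerevisiae YJM 789 seeded 1000 cells per well; test concentration not given here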
Settings: S. cerevisiae YJM789 growth, higher = more signal, called active from +8 up or from −8 down
The source made the active and inactive calls.
RESULT_TYPE: z-score

Data request, read-out z-score, for `CCOC(=O)C[C@H]1[C@H](OC(=O)c2ccc(C(=O)c3ccccc3)cc2)[C@@H](NC(=O)c2ccc3ccccc3c2)c2cc(OCCCO)ccc2N1C(=O)Cc1ccc(OC)cc1`
-0.0229 (inactive)

CC1CC/C=C\[C@H]2OC34C=CCN(C(C)(C)C)C(=O)[C@H]3N(CCO)C(=O)[C@@H]4C2C(=O)O1 (stereo not given in full) ?
-1.33 (inactive)

// repeat for `COC(=O)[C@@]1(Cc2ccc(OC)cc2)[C@H]2c3cc(C(=O)N4CCCC4)n(CCN4CNCC4=O)c3C[C@H]2CN1C(=O)c1ccccc1` and report
0.503 (inactive)

Now give it for CCCCCN1CC=CC23O[C@@H]4C=CCCOC(=O)C4[C@H]2C(=O)N(CCCCCO)[C@@H]3C1=O (stereo not given in full) too.
-0.286 (inactive)

Note, next up: `CN(C)C(=O)[C@]1(Cc2ccccc2N=[N+]=[N-])N=C(c2ccc(OCCCO)cc2)O[C@@H]1c1ccccc1N=[N+]=[N-]`
-2.43 (inactive)
